Tested on: OVCAR-5 ovarian
Assay: NCI tumour cell line growth inhibition, 48 h
ASSAY ENDPOINT: GI50

Use these answered entries as a reference point.
{"STRUCTURE AS SMILES": "COc1cc2c3c(n(CCCN(CCN)CCCn4c5c(c6cc(OC)c(OC)cc6c4=O)C(=O)c4cc6c(cc4-5)OCO6)c(=O)c2cc1OC)-c1cc2c(cc1C3=O)OCO2", "GI50": "3.78 µM"}
{"STRUCTURE AS SMILES": "N=C(N)c1ccc(OCCOCCOc2ccc(C(=N)N)cc2)cc1", "GI50": "> 100 µM"}

Now take the following molecule into account.
Read the entry COc1cc(-n2cc(-c3ccc(F)cc3)nc2SCc2ccccc2)cc(OC)c1OC and write its reported GI50.
> 100 µM

###

Tested on: ACHN renal
Assay: NCI tumour cell line growth inhibition, 48 h
ASSAY ENDPOINT: TGI

{"MOLECULE": "CCN1C=C/C(=C\\C=C/c2cc[n+](CC)c3ccccc23)c2ccccc21", "ENDPOINT VALUE": "33.8 µM"}
{"MOLECULE": "CCOc1ccc(Nc2nc3c(s2)C(=O)c2ccccc2C3=O)cc1", "ENDPOINT VALUE": "28.9 µM"}
{"MOLECULE": "O=C(CC(=O)Nc1cccc(Cl)c1)NNCC(=O)Nc1nnc(-c2ccccc2)s1", "ENDPOINT VALUE": "> 100 µM"}
{"MOLECULE": "C/C=C1/CN2CCc3c([nH]c4ccccc34)[C@@H]2C[C@@H]1Cc1[nH]ccc2c1[nH]c1cc(=O)ccc12", "ENDPOINT VALUE": "> 100 µM"}
{"MOLECULE": "CC1=C(/C=C/C(=O)O)C(C)(C)CCC1", "ENDPOINT VALUE": "> 100 µM"}

Each of the following entries comes with a recorded value; kindly state TGI for each.
1. CCOc1ccccc1NC(=O)c1cc2ccccc2cc1O
2. CC(C)[C@H]1CC[C@H]2[C@@H](CC[C@H]3[C@](C)(CN)CCC[C@]23C)C1
3. Nc1ccc2nc(NCc3ccc(F)cc3)cnc2c1
4. Nc1nc2sc3ccccc3c(=O)n2n1
5. CC1=NOC2(C1)C(=O)Nc1ccccc12 (stereo unspecified)
6. CCCCCc1nc2c(c3c1CCCC3)CCCC2
7. C=CCOC(=O)Cn1cc(C)c(=O)[nH]c1=O
8. N#CCCN(c1ccc(/C=C2\N=C(Cc3ccccc3)OC2=O)cc1)S(=O)(=O)c1ccccc1

10.3 µM
6.44 µM
> 100 µM
> 100 µM
> 100 µM
30.5 µM
> 100 µM
> 100 µM

Each of the following entries comes with a recorded value; kindly state TGI for each.
1. CN(C)c1nc2oc(-c3ccccc3)c(-c3ccccc3)c2c2nncn12
2. Cc1cc(NCCCNc2ccnc3cc(Cl)ccc23)nc(N2CCN(C)CC2)n1
3. COc1ccc2nc3cc(Cl)ccc3c(NCCC[N+](C)(C)CCCCCCCCCCCCCCCC[N+](C)(C)CCCNc3c4ccc(Cl)cc4nc4ccc(OC)cc34)c2c1
4. O=C1NC(=O)C(CC(C(=O)C(=O)Nc2ccccc2Cl)C(=O)c2ccc3ccccc3c2)C(=O)N1 (stereo unspecified)
5. CO/C=C(/C(=O)OC)c1ccccc1[C@@H]1CC1c1cccc(F)c1 (stereo partly specified)

> 100 µM
21 µM
> 100 µM
> 100 µM
62.7 µM

Each of the following entries comes with a recorded value; kindly state TGI for each.
1. O=c1[nH]cnc2c1sc1nc3ccccc3n12
2. CC(=O)Oc1c(C)c2c(O)c3c1C1=C(OCOC1=C(C)C3=O)/C(C)=C\C(C)(O)C(O)C(C)C(O)C1C(=O)OC(C(C)C1O)C(C)(O)/C=C/C=C(C)C(=O)N2 (stereo unspecified)
3. O=c1[nH]c2ccc(Cl)cc2c2oc(-c3ccccc3)nc12

1: > 100 µM; 2: > 100 µM; 3: 51.3 µM

###

System: IGROV1 ovarian
Experiment: NCI tumour cell line growth inhibition, 48 h
Assign TGI to each entry below.

{"COMPOUND": "CN(C)c1ccc(/C=C(\\NC(=O)c2ccccc2)C(=O)NCC(=O)O)cc1", "TGI": "> 100 µM"}
{"COMPOUND": "CCOc1ccc(NC(=O)C2=C(C)NC(C)=C(C(=O)Nc3ccc(OCC)cc3)C2c2ccc(O)c(OC)c2)cc1", "TGI": "> 100 µM"}
{"COMPOUND": "CCCCCc1nc2c(c3c1CCCC3)CCCC2", "TGI": "26.2 µM"}

Each of the following entries comes with a recorded value; kindly state TGI for each.
1. Clc1cc2c(cc1Cl)Oc1cc(Cl)c(Cl)cc1O2
2. CC(C)Nc1ccc(Nc2ccccc2)cc1

1: > 0.625 µM; 2: 37.3 µM

###

Tested on: DU-145 prostate
Experiment: NCI tumour cell line growth inhibition, 48 h
Assign TGI to each entry below.

Use these answered entries as a reference point.
{"COMPOUND": "COc1cc(/C=C2/SC(c3ccccc3)N(c3cccc(Cl)c3)C2=O)cc(OC)c1OC (stereo not given)", "TGI": "> 100 µM"}
{"COMPOUND": "COc1ccc2c(c1)CCN=C2Cc1cc(OC)c(OC)cc1CCCl", "TGI": "> 100 µM"}
{"COMPOUND": "COC(=O)C1=C(C)NC(C)=C(C(=O)OC)C1/C=C(\\Cl)c1ccc(Cl)c(Cl)c1", "TGI": "32 µM"}
{"COMPOUND": "N#Cc1n[nH]n(C2CCCCC2)c1=O", "TGI": "> 100 µM"}
{"COMPOUND": "O=C(Nc1nc(C23CC4CC(CC(C4)C2)C3)cs1)c1c(O)c2ccccc2[nH]c1=O", "TGI": "> 100 µM"}

Each of the following entries comes with a recorded value; kindly state TGI for each.
1. CC(C)(C)OC(=O)CC(NC(=O)OC(C)(C)C)C(=O)N[C@@H]1CCCC[C@H]1C(=O)OCc1ccccc1 (stereo not given in full)
2. CO/C=C(/C(=O)OC)c1ccccc1[C@@H]1CC1c1cccc(F)c1 (stereo not given in full)

1: 99.8 µM; 2: > 100 µM

Each of the following entries comes with a recorded value; kindly state TGI for each.
1. CCCCCCNC(=O)c1cc(CCc2cc(O)ccc2O)ccc1O
2. c1ccc2c(c1)sc1c3cnccc3ccc21
3. CCC[CH2][Sn]([CH2]CCC)([O]C(=O)c1cc(F)ccc1F)[O][Sn]([CH2]CCC)([CH2]CCC)[O]C(=O)c1cc(F)ccc1F

1: 22.7 µM; 2: > 100 µM; 3: 1.92 µM

###

System: HCT-15 colon
Assay: NCI tumour cell line growth inhibition, 48 h; in the data active means GI50 below about 0.43 µM; inactive means the rest
Respond using exactly one of the listed classes: Y (active), N (inactive)

{"COMPOUND": "CC(C)[C@H]1CC[C@H]2[C@@H](CC[C@H]3[C@](C)(CN)CCC[C@]23C)C1", "ANSWER LABEL": "N"}

Could you kindly confirm the outcome this assay logged for COc1ccc2c(c1)=C(C=C1C=CN(O)C=C1)C(=O)N=2 ?
N

Could you kindly confirm the outcome this assay logged for Cc1ccc2c(c1)c1nc3cc(C)c(C)cc3nc1n2CCN(C)C ?
N

Could you kindly confirm the outcome this assay logged for CC[O-].CC[O-].O=C([CH-]C(=O)c1cccnc1)c1ccccc1.O=C([CH-]C(=O)c1cccnc1)c1ccccc1.[Ti+4] ?
N

Could you kindly confirm the outcome this assay logged for CC(C)c1c(C(=O)Nc2ccccc2)c(-c2ccccc2)c(-c2ccc(F)cc2)n1CC[C@@H]1CC=CC(=O)O1 ?
N

Could you kindly confirm the outcome this assay logged for CCOc1ccccc1NC(=O)c1cc2ccccc2cc1O ?
N

Could you kindly confirm the outcome this assay logged for N#Cc1cccc(OCc2nc(N)nc(N)c2-c2ccc(Cl)c(Cl)c2)c1 ?
N

Could you kindly confirm the outcome this assay logged for O=c1c2c3c(sc2n2c(-c4cc(-c5ccccc5)no4)nnc2n1Cc1ccccc1)CCCC3 ?
N

Could you kindly confirm the outcome this assay logged for O=c1cc(-c2ccccc2)oc2cc(O)c(O)c(O)c12 ?
N

Could you kindly confirm the outcome this assay logged for CC(C)Nc1ccc(Nc2ccccc2)cc1 ?
N

###

Tested on: SF-295 CNS
Assay: NCI tumour cell line growth inhibition, 48 h
Assign GI50 to each entry below.

{"COMPOUND": "O=C(Nc1ccc(F)cc1)Nc1ccccc1CNc1nc(Nc2ccc(OCCN3CCCC3)cc2)ncc1Cl", "GI50": "1.97 µM"}

Each of the following entries comes with a recorded value; kindly state GI50 for each.
1. O=S(=O)(Cc1ccc(Cl)cc1Cl)c1ccc(Cl)cc1
2. COc1ccc2c(c1)=C(C=C1C=CN(O)C=C1)C(=O)N=2

["0.495 µM", "34.3 µM"]

###

Test system: KM12 colon
Assay: NCI tumour cell line growth inhibition, 48 h
ASSAY ENDPOINT: GI50

{"STRUCTURE AS SMILES": "Cn1cc(C2=C(c3cn(CCO)c4ccccc34)C(=O)NC2=O)c2ccccc21", "EXPERIMENTAL TARGET": "KM12 colon", "GI50": "2000 nM"}
{"STRUCTURE AS SMILES": "N#C/C(=N\\Nc1ccc(Cl)cc1)C(=O)Nc1cc(-c2ccccc2)nn1-c1ccccc1", "EXPERIMENTAL TARGET": "KM12 colon", "GI50": "2920 nM"}
{"STRUCTURE AS SMILES": "N#Cc1cccc(OCc2nc(N)nc(N)c2-c2ccc(Cl)c(Cl)c2)c1", "EXPERIMENTAL TARGET": "KM12 colon", "GI50": "2960 nM"}

Each of the following entries comes with a recorded value; kindly state GI50 for each.
1. Clc1ccc(/C=C/c2cc(N3CCOCC3)c3cc(Cl)c(Cl)cc3n2)cc1
2. O=c1c2c3c(sc2n2c(-c4cc(-c5ccccc5)no4)nnc2n1Cc1ccccc1)CCCC3
3. O=c1c2ccccc2c(Br)c(Br)c2ccccc12
4. CCCCOc1ccc(NC(=O)n2nc(N)c3ccccc32)cc1
5. CCN1/C(=C/C=C/c2n(-c3ccccc3)c3ccc(-c4nc5ccccc5s4)cc3[n+]2CC)N(c2ccccc2)c2ccc(-c3nc4ccccc4s3)cc21
6. O=C(Nc1ccc(F)cc1)Nc1ccccc1CNc1nc(Nc2ccc(OCCN3CCCC3)cc2)ncc1Cl

1. > 51400 nM
2. 15800 nM
3. 12500 nM
4. 13200 nM
5. 1240 nM
6. 1810 nM

Provenance of the data: PubChem BioAssay (NCI)
